Cited source for all entries: patent EP4438624A1

MEASURED ON: T1, recombinant purified human Nectin-4-Fc fusion protein (human, UniProt Q96NY8 32-349)
T1 construct: Bought ('Aero Biosystems' as printed); not shown: Fc part of the bought fusion protein; captured by anti-human IgG Fc sensors
T1 sequence: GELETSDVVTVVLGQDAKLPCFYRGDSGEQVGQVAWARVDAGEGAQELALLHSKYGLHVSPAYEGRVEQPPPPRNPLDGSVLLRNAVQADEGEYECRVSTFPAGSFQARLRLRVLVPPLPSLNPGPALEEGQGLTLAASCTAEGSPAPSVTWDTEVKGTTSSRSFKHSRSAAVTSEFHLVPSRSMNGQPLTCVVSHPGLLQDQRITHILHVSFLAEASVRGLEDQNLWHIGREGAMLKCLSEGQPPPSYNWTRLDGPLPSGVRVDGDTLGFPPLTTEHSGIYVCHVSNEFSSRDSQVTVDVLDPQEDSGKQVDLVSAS
METHOD SUMMARY: BLI (Octet), Nectin-4-Fc on anti-human Fc sensors, run 2
QUANTITY KIND: kon (M⁻¹ s⁻¹)

1. LV1181xVδ2 (bispecific antibody, Orientation N-term-anti-Nectin-4 VHH-linker-anti-Vδ2 VHH (5C8); no Fc; also called Nectin-4xVδ2 bispecific VHH) EVQLVESGGGLVQAGGSLRLSCAASGSISSINLMGWHRQAPGKQRELVATITRGGSTNYADSVKGRFTISRDNGKNTVYLQMNSLKPEDTAAYYCVDVEPSGMGWRDYWGQGTQVTVSSGGGGSEVQLVESGGGLVQAGGSLRLSCAASGRPFSNYAMGWFRQAPGKEREFVAAISWSGGSTSYADSVKGRFTISRDNAKNTVYLQMNSPKPEDTAIYYCAAQFSGADYGFGRLGIRGYEYDYWGQGTQVTVSS = 818000
2. LV1185xVδ2 (bispecific antibody, Orientation N-term-anti-Nectin-4 VHH-linker-anti-Vδ2 VHH (5C8); no Fc; also called Nectin-4xVδ2 bispecific VHH) EVQLVESGGGLVQAGGSLRLSCAASRSTFSLNIMGWYRQAPGKQREYVATITTGGSTNYADSVRGRFTISRDNAEDTVYLQMNSLKPEDTAVYYCTAELVRRGPTTYWGRGTQVTVSSGGGGSEVQLVESGGGLVQAGGSLRLSCAASGRPFSNYAMGWFRQAPGKEREFVAAISWSGGSTSYADSVKGRFTISRDNAKNTVYLQMNSPKPEDTAIYYCAAQFSGADYGFGRLGIRGYEYDYWGQGTQVTVSS = 593000
3. LV1184xVδ2 (bispecific antibody, Orientation N-term-anti-Nectin-4 VHH-linker-anti-Vδ2 VHH (5C8); no Fc; also called Nectin-4xVδ2 bispecific VHH) EVQLVESGGGLVQAGGSLRLSCAASGSISSINLMGWFRQAPAKQRELVTSISPGGSVRYADSVKGRFTISRDVAKNTVDLQMNSLKPEDTAVYYCAAESERTYYFDSWGQGTQVTVSSGGGGSEVQLVESGGGLVQAGGSLRLSCAASGRPFSNYAMGWFRQAPGKEREFVAAISWSGGSTSYADSVKGRFTISRDNAKNTVYLQMNSPKPEDTAIYYCAAQFSGADYGFGRLGIRGYEYDYWGQGTQVTVSS = 844000
4. LV1186xVδ2 (bispecific antibody, Orientation N-term-anti-Nectin-4 VHH-linker-anti-Vδ2 VHH (5C8); no Fc; also called Nectin-4xVδ2 bispecific VHH) EVQLVESGGGLVQAGGSLRLSCAASRSTFSLNIMGWYRQAPGKQREYVATITSGGSTNYADSVRGRFTISRDNAENTVYLQMDSLKPEDTAVYYCTAELVRRGPTTYWGRGTQVTVSSGGGGSEVQLVESGGGLVQAGGSLRLSCAASGRPFSNYAMGWFRQAPGKEREFVAAISWSGGSTSYADSVKGRFTISRDNAKNTVYLQMNSPKPEDTAIYYCAAQFSGADYGFGRLGIRGYEYDYWGQGTQVTVSS = 660000
